Assignment: determine reported activity coefficient for the given compounds.
Assay: activity coefficient (dimensionless); of the first substance listed, at infinite dilution; xn = mol fraction of the nth substance listed
Conditions: 298.15 K; 238 kPa; Liquid; Chromatography; x1 = 0
Answers are plain numbers.

CC(C)(C)Cl [2-chloro-2-methylpropane] + CCCCCCO
2.4

List the reported activity coefficient of each compound below.
1. CC(C)(C)Cl [2-chloro-2-methylpropane] + CCCCCO
2. CC(C)(C)Cl [2-chloro-2-methylpropane] + CCOC(C)=O
3. CC(C)(C)Cl [2-chloro-2-methylpropane] + CCC(O)CO
4. CC(C)(C)Cl [2-chloro-2-methylpropane] + CCCO
5. CC(C)(C)Cl [2-chloro-2-methylpropane] + CC(O)CCO

1. 2.4
2. 0.9
3. 6.4
4. 3.1
5. 18.1
